Ref: the supplement of paper PMC9112550

What shrunken log2 fold change was measured for each of the following?
- Test system: Escherichia coli TOP10
- ASSAY_INFO: shrunken log2 fold change of peptide-encoding DNA abundance (4.5 h post-induction vs induction); higher = less antimicrobial activity (less host growth inhibition)
- REPORTED_CONDITIONS: time post-induction: 4.5 h; library: site-saturation at positions 5, 18, 19, 20

Some solved cases for reference:
RRIRKRPPRLPRPRPRPDYGPRP
0.111
RRIRPRPPRLPRPRPRPKELPRP
0.0936
RRIRPRPPRLPRPRPRPQAYPRP
-0.215

// for each sequence below, give its shrunken log2 fold change
1. RRIRGRPPRLPRPRPRPKTRPRP
2. RRIRMRPPRLPRPRPRPTERPRP
3. RRIRYRPPRLPRPRPRPLTCPRP
4. RRIRARPPRLPRPRPRPYNAPRP
5. RRIRNRPPRLPRPRPRPIGPPRP
6. RRIRPRPPRLPRPRPRPERPPRP
7. RRIRFRPPRLPRPRPRPEWTPRP

1. 0.884
2. 0.582
3. -0.566
4. -1.2
5. -0.181
6. 0.309
7. 0.155

----------
- System: Escherichia coli TOP10
- ASSAY_INFO: shrunken log2 fold change of peptide-encoding DNA abundance (4.5 h post-induction vs induction); higher = less antimicrobial activity (less host growth inhibition)
- REPORTED_CONDITIONS: time post-induction: 4.5 h; library: site-saturation at positions 5, 18, 19, 20
Param threshold (-0.04) applies to shrunken log2 fold change; output T when value >= threshold, F when value < threshold.

RRIRNRPPRLPRPRPRPDVYPRP
T
RRIRMRPPRLPRPRPRPDGDPRP
T
RRIRARPPRLPRPRPRPQKEPRP
T
RRIRIRPPRLPRPRPRPCFLPRP
F
RRIRWRPPRLPRPRPRPIGYPRP
T
RRIRRRPPRLPRPRPRPCVLPRP
T
RRIRIRPPRLPRPRPRPNYNPRP
F
RRIRYRPPRLPRPRPRPYRNPRP
T
RRIRVRPPRLPRPRPRPCGLPRP
F
RRIRCRPPRLPRPRPRPFGTPRP
F

Is shrunken log2 fold change at least -0.04? Consider RRIRRRPPRLPRPRPRPCLAPRP T

Textbook exercise: given the entry RRIRHRPPRLPRPRPRPQPWPRP , state whether its shrunken log2 fold change is greater than or equal to -0.04. T

Exam item: decide whether the reported shrunken log2 fold change for RRIRIRPPRLPRPRPRPEYTPRP is at least -0.04. T

Tell me whether shrunken log2 fold change is at least -0.04 here: RRIRNRPPRLPRPRPRPQFNPRP F

Threshold query (shrunken log2 fold change >= -0.04) on RRIRLRPPRLPRPRPRPLRDPRP T

Textbook exercise: given the entry RRIRMRPPRLPRPRPRPLMKPRP , state whether its shrunken log2 fold change is greater than or equal to -0.04. T

Is it the case that RRIRERPPRLPRPRPRPVWYPRP has shrunken log2 fold change reaching or exceeding -0.04? F

API: above_or_equal(metric=shrunken log2 fold change, cutoff=-0.04) for item RRIRLRPPRLPRPRPRPGYNPRP F

Given RRIRSRPPRLPRPRPRPGIRPRP , state whether its shrunken log2 fold change is at least -0.04. T

Textbook exercise: given the entry RRIRNRPPRLPRPRPRPPHLPRP , state whether its shrunken log2 fold change is greater than or equal to -0.04. T

Reported shrunken log2 fold change reaches at least -0.04 for RRIRQRPPRLPRPRPRPKGTPRP ? T

Is shrunken log2 fold change at least -0.04? Consider RRIRPRPPRLPRPRPRPIPAPRP T

Determine whether this sequence has shrunken log2 fold change no lower than -0.04: RRIRKRPPRLPRPRPRPNGHPRP T

----------
- Tested on: Escherichia coli TOP10
- ASSAY_INFO: shrunken log2 fold change of peptide-encoding DNA abundance (4.5 h post-induction vs induction); higher = less antimicrobial activity (less host growth inhibition)
- REPORTED_CONDITIONS: time post-induction: 4.5 h; library: site-saturation at positions 5, 18, 19, 20
Decide by shrunken log2 fold change: equal to or exceeding 0.01 means label 1, less means label 0.

Known results for sequences:
RRIRMRPPRLPRPRPRPWESPRP
label 1
RRIRMRPPRLPRPRPRPPDYPRP
label 1
RRIRTRPPRLPRPRPRPCAWPRP
label 0
RRIRARPPRLPRPRPRPSRVPRP
label 1
RRIRNRPPRLPRPRPRPGCMPRP
label 1
RRIRWRPPRLPRPRPRPLMEPRP
label 1
RRIRIRPPRLPRPRPRPLRNPRP
label 0
RRIRDRPPRLPRPRPRPHSIPRP
label 1

Given RRIRPRPPRLPRPRPRPMVNPRP , state whether its shrunken log2 fold change is at least 0.01. label 0

Could you tell me if the measured shrunken log2 fold change of RRIRTRPPRLPRPRPRPVHKPRP reaches 0.01 or more? label 0

Check this sequence for shrunken log2 fold change at or above 0.01: RRIRPRPPRLPRPRPRPKREPRP label 1

API: above_or_equal(metric=shrunken log2 fold change, cutoff=0.01) for item RRIRNRPPRLPRPRPRPPINPRP label 0

Given RRIRWRPPRLPRPRPRPQCEPRP , state whether its shrunken log2 fold change is at least 0.01. label 0

Decide: shrunken log2 fold change of RRIRGRPPRLPRPRPRPSPMPRP >= 0.01? label 1

Has RRIRKRPPRLPRPRPRPPRAPRP a recorded shrunken log2 fold change greater than or equal to 0.01? label 1

Does shrunken log2 fold change meet or surpass 0.01 for RRIRARPPRLPRPRPRPLCYPRP ? label 0

Has RRIRERPPRLPRPRPRPPAIPRP a recorded shrunken log2 fold change greater than or equal to 0.01? label 0

----------
- System: Escherichia coli TOP10
- ASSAY_INFO: shrunken log2 fold change of peptide-encoding DNA abundance (4.5 h post-induction vs induction); higher = less antimicrobial activity (less host growth inhibition)
- REPORTED_CONDITIONS: time post-induction: 4.5 h; library: site-saturation at positions 5, 18, 19, 20
PROPERTY: shrunken log2 fold change
One number for each entry.

Hi, could you look up shrunken log2 fold change for each item in my list?
1. RRIRARPPRLPRPRPRPDGSPRP
2. RRIRPRPPRLPRPRPRPFGCPRP
3. RRIRSRPPRLPRPRPRPREAPRP
4. RRIRERPPRLPRPRPRPHWFPRP

[0.0886, -0.144, 0.587, -0.128]

Count: 4. Required value per item: shrunken log2 fold change.
1. RRIRPRPPRLPRPRPRPSAQPRP
2. RRIRFRPPRLPRPRPRPPGHPRP
3. RRIRKRPPRLPRPRPRPTPEPRP
4. RRIRNRPPRLPRPRPRPEQKPRP

1: -0.0511; 2: 0.337; 3: 0.611; 4: -0.00208

----------
- Tested on: Escherichia coli TOP10
- ASSAY_INFO: shrunken log2 fold change of peptide-encoding DNA abundance (4.5 h post-induction vs induction); higher = less antimicrobial activity (less host growth inhibition)
- REPORTED_CONDITIONS: time post-induction: 4.5 h; library: site-saturation at positions 5, 18, 19, 20
Kindly supply the reported shrunken log2 fold change values for the records listed here.

Some solved cases for reference:
RRIRERPPRLPRPRPRPVSCPRP
0.182
RRIRERPPRLPRPRPRPNFCPRP
0.00589
RRIRARPPRLPRPRPRPALNPRP
0.431
RRIRVRPPRLPRPRPRPTSKPRP
-0.144
RRIRQRPPRLPRPRPRPIYNPRP
-0.478
RRIRQRPPRLPRPRPRPAMRPRP
0.718
RRIRNRPPRLPRPRPRPCFVPRP
-0.147
RRIRLRPPRLPRPRPRPFIAPRP
-0.496

Provide shrunken log2 fold change values for the following items, in order.
1. RRIRSRPPRLPRPRPRPECIPRP
2. RRIRPRPPRLPRPRPRPIAMPRP
3. RRIRVRPPRLPRPRPRPITWPRP
4. RRIRQRPPRLPRPRPRPNLPPRP
5. RRIRMRPPRLPRPRPRPNIGPRP

0.00247
0.0793
-0.182
0.0275
-0.0302

For every item below, please supply its shrunken log2 fold change.
1. RRIRIRPPRLPRPRPRPNHVPRP
2. RRIRERPPRLPRPRPRPTLLPRP

-0.278
-0.137

----------
- System: Escherichia coli TOP10;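 also: peptides expressed intracellularly from a pBAD plasmid library in pooled LB shake-flask culture, induced with 0.3% L-arabinose, DNA abundance read by NGS, three biological replicates, DESeq2 with apeglm shrinkage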
- ASSAY_INFO: shrunken log2 fold change of peptide-encoding DNA abundance (4.5 h post-induction vs induction); higher = less antimicrobial activity (less host growth inhibition)
- REPORTED_CONDITIONS: time post-induction: 4.5 h; library: site-saturation at positions 5, 18, 19, 20
Answer class 0 if shrunken log2 fold change is under -0.04, and class 1 if it is -0.04 or more.

RRIRMRPPRLPRPRPRPKCYPRP
class 1
RRIRGRPPRLPRPRPRPIPTPRP
class 1
RRIRWRPPRLPRPRPRPHWPPRP
class 1
RRIRGRPPRLPRPRPRPERYPRP
class 0

Then there is this sequence:
Record RRIRIRPPRLPRPRPRPVDEPRP ; criterion: shrunken log2 fold change no lower than -0.04. Met? class 1
